system: Pseudomonas aeruginosa ATCC 9027; assay: ≥ marks a high value that may be exact or a test limit, other limits are often not marked, values filed in µg/mL are converted to µM
PROPERTY: MIC (µM)
Give the value in µM but do not write µM after it.

Below: 4 molecules and their reported MIC.
stdin: Report MIC for CC[C@H](C)[C@H](NC(=O)[C@H](C)NC(=O)[C@H](CC(N)=O)NC(=O)[C@H](CCCCN)NC(=O)[C@@H](NC(=O)CNC(=O)[C@H](CCC(=O)O)NC(=O)[C@H](Cc1c[nH]c2ccccc12)NC(=O)[C@H](CC(C)C)NC(=O)[C@H](CCCCN)NC(=O)CNC(=O)[C@H](Cc1c[nH]c2ccccc12)NC(=O)[C@H](Cc1ccccc1)NC(=O)CN)C(C)C)C(N)=O [GFWGKLWEGVKNAI] please.
stdout: 10

stdin: Now consider CC(C)C[C@H](NC(=O)[C@H](CC(C)C)NC(=O)[C@H](CCCCN)NC(=O)[C@H](CCCCN)NC(=O)[C@H](C)NC(=O)[C@H](CC(C)C)NC(=O)[C@H](CCCCN)NC(=O)[C@H](C)NC(=O)[C@@H](N)Cc1ccccc1)C(N)=O [FAKLAKKLL] and answer again.
stdout: 97

stdin: Now consider CC[C@H](C)[C@H](NC(=O)[C@H](CO)NC(=O)[C@H](CCCCN)NC(=O)[C@@H](NC(=O)CNC(=O)[C@H](CCCCN)NC(=O)[C@H](Cc1c[nH]c2ccccc12)NC(=O)[C@H](CC(C)C)NC(=O)[C@H](CCCCN)NC(=O)CNC(=O)[C@H](CC(C)C)NC(=O)[C@@H](NC(=O)[C@@H](N)CCCCN)[C@@H](C)CC)C(C)C)C(=O)N[C@@H](Cc1ccccc1)C(N)=O [KILGKLWKGVKSIF] and answer again.
stdout: 30.9

stdin: Now consider CC[C@H](C)[C@H](NC(=O)[C@H](CCCCN)NC(=O)[C@H](CCCCN)NC(=O)[C@@H](NC(=O)[C@@H](NC(=O)[C@H](CCCCN)NC(=O)[C@H](CCCCN)NC(=O)[C@@H](NC(=O)[C@@H](NC(=O)[C@H](CCCCN)NC(=O)[C@H](CCCCN)NC(=O)[C@@H](NC(=O)[C@@H](NC(=O)CN)[C@@H](C)CC)C(C)C)[C@@H](C)CC)C(C)C)[C@@H](C)CC)C(C)C)C(N)=O [GIVKKIVKKIVKKI] and answer again.
stdout: 21

Next:
stdin: Report MIC for CC(C)[C@H](NC(=O)[C@H](CS)NC(=O)[C@@H](NC(=O)[C@H](CCCN=C(N)N)NC(=O)[C@H](CCCCN)NC(=O)CNC(=O)[C@H](CC(N)=O)NC(=O)[C@H](CS)NC(=O)[C@H](Cc1ccc(O)cc1)NC(=O)CNC(=O)CNC(=O)[C@H](CO)NC(=O)[C@@H](N)CCCN=C(N)N)C(C)C)C(=O)N[C@@H](CS)C(=O)N[C@@H](CCCN=C(N)N)C(=O)O [RSGGYCNGKRVCVCR] please.
stdout: 30.2

----------
Below are MIC values recorded for Escherichia coli.

Below: 2 compounds and their reported MIC.
stdin: Report MIC for CC(C)C[C@H](NC(=O)[C@@H](N)Cc1ccccc1)C(=O)NCC(=O)N[C@@H](CCCCN)C(=O)N[C@H](C(=O)N[C@H](C(=O)N[C@@H](CCCCN)C(=O)NCC(=O)N[C@@H](C)C(=O)N[C@@H](CO)C(=O)N[C@@H](CCCCN)C(=O)N[C@H](C(=O)N[C@@H](Cc1ccccc1)C(=O)N1CCC[C@H]1C(=O)N[C@@H](C)C(=O)N[C@H](C(=O)N[C@@H](Cc1ccccc1)C(=O)NCC(=O)N[C@@H](CCCCN)C(=O)N[C@H](C(=O)O)C(C)C)C(C)C)C(C)C)C(C)C)C(C)C [FLGKVVKGASKVFPAVFGKV] please.
stdout: > 123 µM

stdin: Now consider CC[C@H](C)[C@H](NC(=O)[C@H](CO)NC(=O)[C@H](CC(C)C)NC(=O)CNC(=O)[C@@H](NC(=O)[C@@H](NC(=O)[C@H](CCCCN)NC(=O)[C@@H]1CCCN1)C(C)C)C(C)C)C(=O)N[C@H](C(=O)N[C@H](C(=O)N[C@H](C(=O)N[C@@H](CCCCN)C(=O)N[C@@H](C)C(=O)N[C@@H](CCCCN)C(=O)N[C@H](C(=O)N[C@@H](CO)C(=O)N[C@@H](CO)C(=O)N[C@@H](C)C(=O)N[C@@H](CC(C)C)C(=O)NCC(=O)O)C(C)C)C(C)C)C(C)C)C(C)C [PKVVGLSIVVVKAKVSSALG] and answer again.
stdout: > 131 µM

From here, focus on the item given below.
stdin: Report MIC for CSCC[C@H](NC(=O)[C@@H](N)Cc1ccccc1)C(=O)N[C@@H](CCCCN)C(=O)N[C@H](C(=O)N[C@@H](CC(C)C)C(=O)N[C@@H](C)C(=O)N[C@H](C(=O)N[C@@H](Cc1ccccc1)C(=O)NCC(=O)N[C@@H](CO)C(=O)N[C@H](C(=O)N[C@H](C(=O)N[C@H](C(=O)N[C@@H](CO)C(=O)N[C@@H](C)C(=O)N1CCC[C@H]1C(=O)N[C@@H](CCCCN)C(=O)N[C@@H](C)C(=O)N[C@@H](CO)C(=O)N[C@@H](CCCCN)C(=O)O)[C@@H](C)O)C(C)C)C(C)C)C(C)C)C(C)C [FMKVLAVFGSVVTSAPKASK] please.
stdout: > 124 µM
